- Test Details: recombinant barcode read abundance after kanamycin selection (control-corrected) (log10(CPM+1)); higher = more efficient recombination; sequences stand for … in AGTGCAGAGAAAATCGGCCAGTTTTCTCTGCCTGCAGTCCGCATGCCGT…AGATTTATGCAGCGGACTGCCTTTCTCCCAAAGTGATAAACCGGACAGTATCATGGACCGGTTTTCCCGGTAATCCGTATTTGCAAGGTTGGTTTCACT; site = the 11-nt target
Attribute Measured: recombinant barcode read abundance (log10)

The sequence GGTATAGCTTGGGTTCTAACCTGTTGCCT (site GGTAAAGCTAG) showed recombinant barcode read abundance (log10) equal to 0.14

The sequence CTAGACTCTTGGGTTCTAACCTGTTGCAC (site CTAGACTCTCT) showed recombinant barcode read abundance (log10) equal to 0.0956

The sequence AGGGTACCTTGGGTTCTAACCTGTTGCAG (site GAATCGACTAG) showed recombinant barcode read abundance (log10) equal to 0.0315

The sequence ACAATACCTTGGGTTCTAACCTGTTGCCT (site ATAATACCTAG) showed recombinant barcode read abundance (log10) equal to 0.143

The sequence GGATTCACTTGGGTTCTAACCTGTTGCCA (site GGATCCACTTG) showed recombinant barcode read abundance (log10) equal to 0.0631

The sequence TATTTGCCTTGGGTTCTAACCTGTTGCCT (site TAATTGCCTAG) showed recombinant barcode read abundance (log10) equal to 0.0398

====

- Test Details: recombinant UMI read abundance after kanamycin selection (control-corrected) (log10(CPM+1)); higher = more efficient recombination; extreme values may be limits of the assay; sequences stand for … in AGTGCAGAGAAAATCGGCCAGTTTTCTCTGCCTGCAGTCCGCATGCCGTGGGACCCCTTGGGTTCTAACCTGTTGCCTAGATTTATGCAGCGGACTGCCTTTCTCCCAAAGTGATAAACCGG…AGGTTGGTTTCACT; site = the 11-nt donor
Attribute Measured: recombinant UMI read abundance (log10)
The answer should be written as a number, with no unit following it.

The sequence CGGCATCCATGGACCGGTTTTCCCGGTAATCCGTATTTGTG (site CGGCATCCTCA) showed recombinant UMI read abundance (log10) equal to 0.644

The sequence CATTTGGCATGGACCGGTTTTCCCGGTAATCCGTATTTGTG (site GATTTGGCTCA) showed recombinant UMI read abundance (log10) equal to 0.00627

The sequence TTGCTACCATGGACCGGTTTTCCCGGTAATCCGTATTTGCT (site CTGCTACCTAG) showed recombinant UMI read abundance (log10) equal to 0.00337

The sequence TTTGCGACATGGACCGGTTTTCCCGGTAATCCGTATTTGCT (site TTTGCGTCTAG) showed recombinant UMI read abundance (log10) equal to 0

The sequence CCCTTATCATGGACCGGTTTTCCCGGTAATCCGTATTTGGG (site CCCTTATCTCC) showed recombinant UMI read abundance (log10) equal to 0.162

====

- Test Details: recombinant UMI read abundance after kanamycin selection (control-corrected) (log10(CPM+1)); higher = more efficient recombination; extreme values may be limits of the assay; sequences stand for … in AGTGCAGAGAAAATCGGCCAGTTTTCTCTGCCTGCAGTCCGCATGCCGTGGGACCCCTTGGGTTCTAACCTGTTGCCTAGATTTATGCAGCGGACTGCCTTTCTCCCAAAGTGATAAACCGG…AGGTTGGTTTCACT; site = the 11-nt donor
Kindly return fulfilled if reported recombinant UMI read abundance (log10) is no lower than 0.5; return not fulfilled if it is lower.

Lookup: # bool: recombinant UMI read abundance (log10) of GCTACTGCATGGACCGGTTTTCCCGGTAATCCGTATTTGAC (site GCTACTGCTGG) >= 0.5
Found: not fulfilled

Lookup: # bool: recombinant UMI read abundance (log10) of TGTATCACATGGACCGGTTTTCCCGGTAATCCGTATTTGAA (site TGTATCACTTT) >= 0.5
Found: not fulfilled

Lookup: # bool: recombinant UMI read abundance (log10) of GATTCTCCATGGACCGGTTTTCCCGGTAATCCGTATTTGCT (site GATTGTCCTAG) >= 0.5
Found: not fulfilled

Lookup: # bool: recombinant UMI read abundance (log10) of GTTGGAACATGGACCGGTTTTCCCGGTAATCCGTATTTGGC (site GTTGGAACTGC) >= 0.5
Found: fulfilled

Lookup: # bool: recombinant UMI read abundance (log10) of AACCTTTCATGGACCGGTTTTCCCGGTAATCCGTATTTGAC (site AACCTTTCTGT) >= 0.5
Found: not fulfilled

Lookup: # bool: recombinant UMI read abundance (log10) of GACTCGACATGGACCGGTTTTCCCGGTAATCCGTATTTGCA (site GACTCGACTTG) >= 0.5
Found: fulfilled

Lookup: # bool: recombinant UMI read abundance (log10) of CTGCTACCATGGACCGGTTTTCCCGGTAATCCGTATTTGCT (site CTGCTCCCTAG) >= 0.5
Found: fulfilled

Lookup: # bool: recombinant UMI read abundance (log10) of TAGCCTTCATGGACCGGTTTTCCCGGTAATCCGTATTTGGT (site TAGCCTTCTAG) >= 0.5
Found: not fulfilled

Lookup: # bool: recombinant UMI read abundance (log10) of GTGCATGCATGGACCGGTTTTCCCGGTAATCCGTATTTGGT (site GTGCATGCTGC) >= 0.5
Found: not fulfilled

Lookup: # bool: recombinant UMI read abundance (log10) of CTAGTATCATGGACCGGTTTTCCCGGTAATCCGTATTTGTG (site CTAGTATCTCA) >= 0.5
Found: fulfilled

Lookup: # bool: recombinant UMI read abundance (log10) of CGGTCACCATGGACCGGTTTTCCCGGTAATCCGTATTTGTA (site CGGTCACCTTA) >= 0.5
Found: not fulfilled

Lookup: # bool: recombinant UMI read abundance (log10) of GTGCAAACATGGACCGGTTTTCCCGGTAATCCGTATTTGTG (site GTGCAAACTCA) >= 0.5
Found: fulfilled

Lookup: # bool: recombinant UMI read abundance (log10) of TAAAGACCATGGACCGGTTTTCCCGGTAATCCGTATTTGTA (site TAAAGGCCTTA) >= 0.5
Found: not fulfilled

Lookup: # bool: recombinant UMI read abundance (log10) of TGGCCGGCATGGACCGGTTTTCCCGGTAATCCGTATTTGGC (site TGGCGGGCTGC) >= 0.5
Found: not fulfilled

Lookup: # bool: recombinant UMI read abundance (log10) of GTCACGCCATGGACCGGTTTTCCCGGTAATCCGTATTTGTA (site GACACGCCTTA) >= 0.5
Found: not fulfilled
